Measured apparent Kd, listed per entry.
# Test system: MS2 coat protein
# Test Details: apparent Kd, MS2 coat protein; higher = weaker binding; RNA-MaP array; FMN 200 µM where present
# Measurement Setup: ligand present: flavin mononucleotide; designed as: ON switch for flavin mononucleotide
Respond numerically; units are nM and should not be typed.

[[record]]
seq_string = "GGAUUUGGUCCAAUUUCGGUGAGUAAGGAUAUGCAUGGCAUACAUGAGGAUCACCCAUGUUGUCGGCAGAAGGUGCCACAACGU"
target_system = "MS2 coat protein"
recorded_value = 16.3


Exercise: Sample GUGCACACUCGAGGAUAUCGGAGUUUUCUUCUUUGAGAAGGCGAUUCGUGCCGUGUUAUUUUGGACAUGAGGAUCACCCAUGUG — what was its apparent Kd?
Solution: 36.8

Exercise: Then this sequence: GCGAUUUUGUAAGGAUAUACACCAGUUUUAAGUGUAGAAGGUACUUACAUGAGGAUCACCCAUGUAUAAAUGUAUAAUAGUCGC
Solution: 6.87

Exercise: Okay, and UGUUGUAUUACAGGAUAUCUAGUAUUUUUAUUCAGAGAAGGGUAUUCACAUGAGGAUCACCCAUGUAUAUACGAGGAAGUUGUG ?
Solution: 46.2
